target-desc: T1, HLA-B*44:05 (human)
T1 construct: also called peptide-receptive MHC class I molecule
protocol-notes: UV peptide exchange, anti-b2m ELISA
Reported peptide exchange yield values are given for each entry in this list.

Consider the reported peptide exchange yield for these binders:
INSERT INTO results (binder, readout_name, reading) VALUES
  ('QELFLHPVL', 'peptide exchange yield', '> 75%'),
  ('SENKKWVEF', 'peptide exchange yield', '20 to 50%'),
  ('SEIDEKVTDL', 'peptide exchange yield', '50 to 75%'),
  ('AEALVDGKW', 'peptide exchange yield', '50 to 75%'),
  ('GEVQENYKL', 'peptide exchange yield', '50 to 75%');

Asked: Reported peptide exchange yield, binder AEYSVHKITSTF : ____
Given back: > 75%

Asked: Similarly, VELEVPQL ?
Given back: 20 to 50%

Asked: Similarly, SEKEPGQQY ?
Given back: 20 to 50%
